# System: EBNA-1 (Epstein-Barr virus nuclear antigen 1), Human herpesvirus 4
# Experiment Description: EBNA-1 DNA-binding inhibitors, primary screen, biochemical, fluorescence polarization (AID 1950)
# Measurement Context: at 14.8 µM
The campaign covered roughly 300,000 compounds. About 1,000 (0.33%) were called active. No stated cut-off is given here; in the data, active means inhibition above about 28%; inactive means the rest. This excerpt belongs to a sample that is enriched for actives.
Assign a class; possible classes are active, inactive

COc1ccc(-c2nn(-c3ccccc3)cc2/C=C2/SC(=S)N(CCCC(=O)O)C2=O)c(C)c1 :: inactive
CCc1ccc(NC(=O)Nc2ccncc2)cc1 :: inactive
Cc1ccc(NS(=O)(=O)c2ccc3c(c2)n(C)c(=O)c(=O)n3C)c(C)c1 :: inactive
CCOc1ccc(CCNC(=O)COC(=O)c2ccc(F)c(S(=O)(=O)N3CCOCC3)c2)cc1OCC :: inactive
O=C(Nc1cccc(NC(=O)c2cccc(F)c2)c1)c1ccccc1 :: inactive

query: Outcome? O=C(NCc1ccccc1)[C@@H]1CSC2c3ccccc3C(=O)N21 (stereo partly specified)
result: inactive

query: Outcome? O=C(Nc1cccc(NC(=O)c2ccc(Br)cc2)c1)c1ccccc1
result: active

query: Outcome? COc1ccc(-c2cc(=O)oc3cc(OCC(=O)N(C)C4CCS(=O)(=O)C4)ccc23)cc1 (stereo unspecified)
result: inactive

query: Outcome? CC(C)OC(=O)c1ccc(COc2ccc3ccc(=O)oc3c2)o1
result: inactive

query: Outcome? CCOc1ccc(S(=O)(=O)N2CCN=C2Cc2ccccc2)cc1C
result: inactive

query: Outcome? Cc1ccccc1NC(=O)C(C)OC(=O)CCC(=O)N(CC(C)C)c1c(N)n(CC(C)C)c(=O)[nH]c1=O (stereo unspecified)
result: inactive

query: Outcome? CC1=NN(C(N)=S)C(=O)C1N=Nc1cc(Cl)ccc1Cl (stereo unspecified)
result: inactive

query: Outcome? CCc1nonc1NC(=O)c1oc2ccc(Cl)cc2c1C
result: inactive

query: Outcome? COc1ccc(S(=O)(=O)N2CCCCCC2)cc1C(=O)OCC(=O)Nc1cc(C)on1
result: inactive

query: Outcome? COC(=O)c1sc(NC(=O)c2ccc(OC)cc2OC)nc1C
result: inactive

query: Outcome? COc1ccc(-c2ccc(Nc3ccc(S(=O)(=O)N4CCCC4)cc3)nn2)cc1OC
result: active

query: Outcome? Cc1nonc1NC(=O)c1oc2ccccc2c1C
result: inactive

query: Outcome? CC(=O)c1cc2c(cc1NC(=O)Cn1nc(-c3ccc(F)cc3)ccc1=O)OCO2
result: inactive

query: Outcome? CCc1ccccc1OCC(=O)Nc1ccc2c(c1)OCCO2
result: inactive

query: Outcome? Cc1[nH]n(C(N)=S)c(=O)c1N=Nc1ccc(Cl)cc1Cl
result: active

query: Outcome? CC(=O)n1cc([C@@H]2C=C(C(=O)N3CCN(Cc4ccc5c(c4)OCO5)CC3)O[C@H](OCc3ccc(CO)cc3)C2)c2ccccc21
result: inactive

---

# Test system: EBNA-1 (Epstein-Barr virus nuclear antigen 1), Human herpesvirus 4
# Experiment Description: EBNA-1 DNA-binding inhibitors, primary screen, biochemical, fluorescence polarization (AID 1950)
# Measurement Context: at 14.8 µM, stronger effect = higher value
Among all 300,000 compounds or so, about 1,000 (0.33%) were called active. The sample holds actives, similar compounds and a random draw of the others, so the mix is not that of the screen.
Recorded inhibition values for a group of compounds are listed next.
Field: numeric (%). Do not append units.

Example cases with answers are listed next.
C=CCNC(=S)/N=c1/ccccn1Cc1ccccc1 :: 3.92
C/C(=N\NC(=S)NCc1ccccc1)c1ccc(Cl)cc1 :: -0.89
CC(=O)C1=C(O)C(=O)N(c2ccc(Br)cc2)C1c1ccc([N+](=O)[O-])cc1 (stereo unspecified) :: -5.58
O=C(NCCOc1cccnc1)c1ccc(OC2CCN(Cc3ccccn3)CC2)cc1 :: 6.33
CC(=O)CC[C@@H](C)O[C@@H]1OC(C)[C@H](O)CC1O (stereo partly specified) :: 4.39

query: Provide value of inhibition for this record tested with EBNA-1 (Epstein-Barr virus nuclear antigen 1), Human herpesvirus 4: C/C(=N\OCC(=O)O)c1ccc(Cl)cc1
result: 8.77
